System: Acinetobacter baumannii
protocol_description: Antibacterial activity against Acinetobacter baumannii ATCC 19606 incubated for 18 to 24 hrs by broth microdilution method
Type: functional
assay_setup: time 18-24 hrs
Bridge positions count the residues as written; N and C are the ends. Square brackets hold non-standard residues; d marks the D form. Peptide text beside a SMILES is read from it. * marks the point of attachment. Lauroyl = CCCCCCCCCCCC(=O)*; dOrn = NCCC[C@@H](N)C(=O)O; Orn = NCCC[C@H](N)C(=O)O
value_type: MIC
Quote the value and follow it with the unit of measurement.

Past entries and their recorded results:
- molecule: "CCC(C)CCC(=O)N[C@H](CC(N)=O)C(=O)N[C@H](Cc1ccc(O)cc1)C(=O)N[C@H](Cc1c[nH]c2ccccc12)C(=O)N[C@H](C)C(=O)N[C@@H](CCCN)C(=O)NCC(=O)N[C@H](CCCN)C(=O)N[C@@H](Cc1c[nH]c2ccccc12)C(=O)N[C@@H]1C(=O)N[C@@H]([C@@H](C)CC)C(=O)NCC(=O)N[C@@H](CO)C(=O)O[C@@H]1C (mixture of isomers)"
  MIC: "8 µM"
- molecule: "CCC(C)CCC(=O)N[C@H](CC(N)=O)C(=O)N[C@H](Cc1ccc(N)cc1)C(=O)N[C@H](Cc1c[nH]c2ccccc12)C(=O)N[C@H](CCCN)C(=O)N[C@@H](CCCN)C(=O)NCC(=O)N[C@H](CCCN)C(=O)N[C@@H](Cc1c[nH]c2ccccc12)C(=O)N[C@@H]1C(=O)N[C@@H]([C@@H](C)CC)C(=O)NCC(=O)N[C@@H](CO)C(=O)O[C@@H]1C (mixture of isomers)"
  MIC: "32 µM"
- molecule: "CCCCCCCCCCCC(=O)N[C@H](CC(N)=O)C(=O)N[C@H](Cc1ccc(O)cc1)C(=O)N[C@H](Cc1c[nH]c2ccccc12)C(=O)N[C@H](CCCN)C(=O)N[C@@H](CCCN)C(=O)NCC(=O)N[C@H](CCCN)C(=O)N[C@@H](Cc1c[nH]c2ccccc12)C(=O)N[C@@H]1C(=O)N[C@@H]([C@@H](C)CC)C(=O)NCC(=O)N[C@@H](CO)C(=O)O[C@@H]1C (Lauroyl-[dN][dY][dW][dOrn][Orn]G[dOrn]WTIGS; ester 9-C)"
  MIC: "4 µM"
- molecule: "CCC(C)CCC(=O)N[C@H](CC(N)=O)C(=O)N[C@H](Cc1ccc(O)cc1)C(=O)N[C@H](Cc1c[nH]c2ccccc12)C(=O)N[C@H](CCCNC(=N)N)C(=O)N[C@@H](CCCNC(=N)N)C(=O)NCC(=O)N[C@H](CCCNC(=N)N)C(=O)N[C@@H](Cc1c[nH]c2ccccc12)C(=O)N[C@@H]1C(=O)N[C@@H]([C@@H](C)CC)C(=O)NCC(=O)N[C@@H](CO)C(=O)O[C@@H]1C (mixture of isomers)"
  MIC: "8 µM"
- molecule: "CCC(C)CCC(=O)N[C@H](CC(N)=O)C(=O)N[C@H](Cc1ccc(O)cc1)C(=O)N[C@H](Cc1c[nH]c2ccccc12)C(=O)N[C@H](CCCN)C(=O)N[C@@H](CCCN)C(=O)N[C@@H](CCCN)C(=O)N[C@H](CCCN)C(=O)N[C@@H](Cc1c[nH]c2ccccc12)C(=O)N[C@@H]1C(=O)N[C@@H]([C@@H](C)CC)C(=O)NCC(=O)N[C@@H](CO)C(=O)O[C@@H]1C (mixture of isomers)"
  MIC: "8 µM"

Kindly give each listed record's MIC.
1. CCC(C)CCC(=O)N[C@H](CCCN)C(=O)N[C@H](Cc1ccc(O)cc1)C(=O)N[C@H](Cc1c[nH]c2ccccc12)C(=O)N[C@H](CCCN)C(=O)N[C@@H](CCCN)C(=O)NCC(=O)N[C@H](CCCN)C(=O)N[C@@H](Cc1c[nH]c2ccccc12)C(=O)N[C@@H]1C(=O)N[C@@H]([C@@H](C)CC)C(=O)NCC(=O)N[C@@H](CO)C(=O)O[C@@H]1C (mixture of isomers)
2. CCC(C)CCC(=O)N[C@H](CC(N)=O)C(=O)N[C@H](Cc1ccc(O)cc1)C(=O)N[C@H](Cc1c[nH]c2ccccc12)C(=O)N[C@H](CCCN)C(=O)N[C@@H](C)C(=O)NCC(=O)N[C@H](CCCN)C(=O)N[C@@H](Cc1c[nH]c2ccccc12)C(=O)N[C@@H]1C(=O)N[C@@H]([C@@H](C)CC)C(=O)NCC(=O)N[C@@H](CO)C(=O)O[C@@H]1C (mixture of isomers)
3. CCC(C)CCC(=O)N[C@H](CC(N)=O)C(=O)N[C@H](Cc1ccc(C)cc1)C(=O)N[C@H](Cc1c[nH]c2ccccc12)C(=O)N[C@H](CCCN)C(=O)N[C@@H](CCCN)C(=O)NCC(=O)N[C@H](CCCN)C(=O)N[C@@H](Cc1c[nH]c2ccccc12)C(=O)N[C@@H]1C(=O)N[C@@H]([C@@H](C)CC)C(=O)NCC(=O)N[C@@H](CO)C(=O)O[C@@H]1C (mixture of isomers)
4. CCC(C)CCC(=O)N[C@H](CC(N)=O)C(=O)N[C@H](Cc1ccc(O)cc1)C(=O)N[C@H](Cc1c[nH]c2ccccc12)C(=O)N[C@H](CCCN)C(=O)N[C@@H](CCCN)C(=O)NCC(=O)N[C@H](C)C(=O)N[C@@H](Cc1c[nH]c2ccccc12)C(=O)N[C@@H]1C(=O)N[C@@H]([C@@H](C)CC)C(=O)NCC(=O)N[C@@H](CO)C(=O)O[C@@H]1C (mixture of isomers)
5. CCC(C)CCC(=O)N[C@H](CC(N)=O)C(=O)N[C@H](Cc1ccc(-c2ccccc2)cc1)C(=O)N[C@H](Cc1c[nH]c2ccccc12)C(=O)N[C@H](CCCN)C(=O)N[C@@H](CCCN)C(=O)NCC(=O)N[C@H](CCCN)C(=O)N[C@@H](Cc1c[nH]c2ccccc12)C(=O)N[C@@H]1C(=O)N[C@@H]([C@@H](C)CC)C(=O)NCC(=O)N[C@@H](CO)C(=O)O[C@@H]1C (mixture of isomers)

8 µM
8 µM
8 µM
8 µM
8 µM

###

Please go through the items and note down their MIC.
Tested on: Acinetobacter baumannii
protocol_description: Antibacterial activity against Acinetobacter baumannii ATCC 19606 incubated for 18 to 24 hrs by broth microdilution method
Format: functional
assay_setup: time 18-24 hrs
Bridge positions count the residues as written; N and C are the ends. Square brackets hold non-standard residues; d marks the D form. Peptide text beside a SMILES is read from it. * marks the point of attachment. ξ: configuration not given here. Hexanoyl(4ξ-Me) = CCC(C)CCC(=O)*; dOrn = NCCC[C@@H](N)C(=O)O; Orn = NCCC[C@H](N)C(=O)O
Give bare numbers, in µM.

Past entries and their recorded results:
- molecule: "CCC(C)CCC(=O)N[C@H](CC(N)=O)C(=O)N[C@H](Cc1ccc(O)cc1)C(=O)N[C@H](Cc1c[nH]c2ccccc12)C(=O)N[C@H](CN)C(=O)N[C@@H](CN)C(=O)NCC(=O)N[C@H](CN)C(=O)N[C@@H](Cc1c[nH]c2ccccc12)C(=O)N[C@@H]1C(=O)N[C@@H]([C@@H](C)CC)C(=O)NCC(=O)N[C@@H](CO)C(=O)O[C@@H]1C (mixture of isomers)"
  system_name: "Acinetobacter baumannii"
  MIC, µM: 32
- molecule: "CCC(C)CCC(=O)N[C@H](CC(N)=O)C(=O)N[C@H](Cc1ccc(O)cc1)C(=O)N[C@H](Cc1c[nH]c2ccccc12)C(=O)N[C@H](CCN)C(=O)N[C@@H](CCN)C(=O)NCC(=O)N[C@H](CCN)C(=O)N[C@@H](Cc1c[nH]c2ccccc12)C(=O)N[C@@H]1C(=O)N[C@@H]([C@@H](C)CC)C(=O)NCC(=O)N[C@@H](CO)C(=O)O[C@@H]1C (stereo partly specified)"
  system_name: "Acinetobacter baumannii"
  MIC, µM: 32

Kindly give each listed record's MIC.
1. CCC(C)CCC(=O)N[C@H](CCCN)C(=O)N[C@H](Cc1ccc(O)cc1)C(=O)N[C@H](Cc1c[nH]c2ccccc12)C(=O)N[C@H](CCCN)C(=O)N[C@@H](CCCN)C(=O)N[C@@H](CCCN)C(=O)N[C@H](CCCN)C(=O)N[C@@H](Cc1c[nH]c2ccccc12)C(=O)N[C@@H]1C(=O)N[C@@H]([C@@H](C)CC)C(=O)NCC(=O)N[C@@H](CO)C(=O)O[C@@H]1C (stereo partly specified)
2. CCCCCCCCCC(=O)N[C@H](CCCN)C(=O)N[C@H](Cc1ccc(O)cc1)C(=O)N[C@H](Cc1c[nH]c2ccccc12)C(=O)N[C@H](CCCN)C(=O)N[C@@H](CCCN)C(=O)NCC(=O)N[C@H](CCCN)C(=O)N[C@@H](Cc1c[nH]c2ccccc12)C(=O)N[C@@H]1C(=O)N[C@@H]([C@@H](C)CC)C(=O)NCC(=O)N[C@@H](CO)C(=O)O[C@@H]1C
3. CCCCCCCCCC(=O)N[C@H](CCCN)C(=O)N[C@H](Cc1ccc(O)cc1)C(=O)N[C@H](Cc1c[nH]c2ccccc12)C(=O)N[C@H](CCCN)C(=O)N[C@@H](CCCN)C(=O)NCC(=O)N[C@H](CCCN)C(=O)N[C@@H](Cc1c[nH]c2ccccc12)C(=O)N[C@H](C(=O)N[C@H](C(=O)NCC(=O)N[C@@H](CO)C(=O)O)[C@@H](C)CC)[C@@H](C)O

16
16
4

Look up MIC of CCC(C)CCC(=O)N[C@H](CC(N)=O)C(=O)N[C@H](Cc1ccc(O)cc1)C(=O)N[C@H](Cc1c[nH]c2ccccc12)C(=O)N[C@H](CCCN)C(=O)N[C@@H](CCCN)C(=O)NCC(=O)N[C@H](CCCN)C(=O)N[C@@H](Cc1c[nH]c2ccccc12)C(=O)N[C@@H]1C(=O)N[C@@H]([C@@H](C)CC)C(=O)NCC(=O)N[C@@H](CO)C(=O)O[C@@H]1C (stereo partly specified) ({Hexanoyl(4ξ-Me)}-[dN][dY][dW][dOrn][Orn]G[dOrn]WTIGS; ester 9-C) and report it.
8
